# assay_system: T1, human CD40L, membrane-bound on cells (human, UniProt P29965 1-261)
# T1 sequence: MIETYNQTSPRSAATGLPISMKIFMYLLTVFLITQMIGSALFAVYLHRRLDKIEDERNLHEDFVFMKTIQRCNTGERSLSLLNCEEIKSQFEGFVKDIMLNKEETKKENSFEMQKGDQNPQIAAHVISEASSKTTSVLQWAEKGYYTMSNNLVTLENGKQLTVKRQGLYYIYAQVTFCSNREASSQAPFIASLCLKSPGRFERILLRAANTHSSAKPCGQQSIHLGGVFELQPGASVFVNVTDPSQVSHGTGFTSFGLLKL
# test_method_notes: cell-based or functional assay
value_kind: CHO-hCD40L-driven DC Activation IL-12 EC50 (nM)
Answers are plain numbers, in nM.

>>> obs_value("BMS2h-572-634 (other) VH: EVQLLESGGGLVQPGGSLRLSCAASGFTFNWELMGWARQAPGKGLEWVSGIEGPGDVTYYADSVKGRFTISRDNSKNTLYLQMNSLRAEDTAVYYCVKVGKDSRSDYRGQGTLVTVSS")
77
>>> obs_value("BMS2h-572-616 (other) VH: EVQLLESGGGLVQPGGSLRLSCAASGFTFNWQLMGWVRQAPGKGLEWVSGIEGPGDVTYYADSVKGRFTISRDNSKNTLYLQMNSLRAEDTAVYYCVKVGKESKSDYRGQGTLVTVSS")
608
>>> obs_value("BMS2h-116-1314 (other) VL: DIQMTQSPSSLSASVGDRVTITCRASQPIGPDLLWYRQKPGKAPKLLIYQTSILRSGVPSRFSGSGSETDFTLTISNLQPEDFATYYCQQYWAFPVTFGQGTKVVIKR")
664
>>> obs_value("BMS2h-572-15 (other) VH: EVRLLESGGGLVQPGGSLRLSCAASGFNFNWQLMGWIRQAPGKGLEWVSGIEGPGDVTYYADSVKGRFTISRDNSKNTLYLQMNSLRAEDTAVYYCAKVGKESNSDYRGQGTLVTVSS")
876
>>> obs_value("BMS2h-719-225 (other) VH: EVQLLESGGGLVQPGGSLRLSCAASGFTFNTYEMQWVRQAPGKGLEWVSSISSDGSFTYYADSVKGRFTISRDNSKNTLYLQMNSLRAEDTAVYYCAEPFTEFDYWGHGTLVTVSS")
176
>>> obs_value("BMS2h-719-226 (other) VH: EVQLLESGGGLVQPGGSLRLSCAASGFTFNKYEMMWARQAPGKGLEWVSSISSDGSFTYYADSVKGRFTISRDNSRNTLYLQMNSLRAEDTAVYYCAEPFTEFDYWGHGTLVTVSS")
812
>>> obs_value("BMS2h-719-17 (other) VH: EVQLLESGGGLVQPGGSLRLSCAASGFTFKRYEMSWVRQAPGKGLEWVSSISSDGSFTYYADSVKGRFTISRDNSKNTLYLQMNSLRAEDTAVYYCADPFTEIDYWGQGTQVTVSS")
113
>>> obs_value("BMS2h-572-617 (other) VH: EVQLLESGGGLVQPGGSLRLSCAASGFTFNWQLMGWVRQAPGKGLEWVSGIEGPGDVTYYADSVKGRFTISRDNSKNTLYLQMNSLRAEDTAVYYCVKVGRDSKSDYRGQGTLVTVSS")
338

Hi there! I need CHO-hCD40L-driven DC Activation IL-12 EC50 for each item below, if you can.
1. BMS2h-503-2 (other) VL: DIQMTQSPSSLSASVGDRVTITCRASHDIQRYLSWYQQKPGKAPKLLILWGSQLQSGVPSRFSGSGSGTDFTLTISSLQPEDFATYYCGQWWAPPQTFGQGTKVEIKR
2. BMS2h-719-19 (other) VH: EVQLLESGGGWVQPGGSLRLSCAASGFTFKRYEMMWVRQAPGKGLEWVSSISSDGSFTYYADSVKGRFTISRDNSKNTLYLQMNSLRAEDTAVYYCADPFTEFDYWGQGTLVTVSS
3. BMS2h-572-14 (other) VH: EVQLLESGGGLVQPGGSLRLSCAASGFTFNWQLMGWVRQAPGKGLEWVSGIEGPGDVTYYADSVKGRFTISRDNTKNTLYLQMNSLRAEDTAVYYCVKVGKESNSDYRGQGTLVTVSS
4. BMS2h-116-1312 (other) VL: DIQMTQSPSSLSASVGDRVTITCRASQPIGPDLLWYQQKPGKAPKLLIYQTSILRSGVPSRFSGSGSETDFTLTISNLQPEDLATYYCQQYWAFPVTFGKGTKVVIKR
5. BMS2h-572-631 (other) VH: EVQLLESGGGLVQPGGSLRLSCAASGFTFKWQLMGWVRQAPGKGLEWVSGIEGPGDVTYYADSVKGRFTISRDNSKNTLYLQMNSLRAEDTAVYYCVKVGKDSRSDYRGQGTLVTVSS
6. BMS2h-572-619 (other) VH: EVQLLESGGGLVQPGGSLRLSCAASGFTFNWQLMGWVRQAPGKGLEWVSGIEGPGDVTYYADSVKGRFTISRDNSKNTLYLQMNSLRAEDTAVYYCVKVGKDSRSDYRGQGTLVTVSS
7. BMS2h-572-623 (other) VH: EVQLLESGGGLVQPGGSLRLSCAASGFTFNWQLMGWVRQAPGKGLEWVSGIEGPGDVTYYADSVKGRFTISRDNSKNTLYLQMNSLRAEDTAVYYCVKVGKESSSDYRGQGTLVTVSS

1: 1560; 2: 184; 3: 882; 4: 112; 5: 230; 6: 188; 7: 280

Ref: patent US20160075790A1
